# MEASURED TARGET: CRF1 (Homo sapiens, UniProt P34998)
# Construct: endogenously expresses functional CRF1; endogenous in cells; host or cells: Y-79 human retinoblastoma cells
# Sequence (P34998 24-415): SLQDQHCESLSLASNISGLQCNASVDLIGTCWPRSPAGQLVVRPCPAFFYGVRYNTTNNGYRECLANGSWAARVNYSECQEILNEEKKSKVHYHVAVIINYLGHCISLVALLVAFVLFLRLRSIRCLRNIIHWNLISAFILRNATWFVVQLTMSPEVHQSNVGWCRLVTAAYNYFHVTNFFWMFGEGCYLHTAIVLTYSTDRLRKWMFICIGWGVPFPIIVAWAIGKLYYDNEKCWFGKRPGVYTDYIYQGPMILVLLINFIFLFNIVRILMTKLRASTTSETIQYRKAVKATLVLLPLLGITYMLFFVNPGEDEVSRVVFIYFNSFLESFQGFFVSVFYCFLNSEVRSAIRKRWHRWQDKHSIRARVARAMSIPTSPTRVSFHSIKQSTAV
# EXPERIMENT DESCRIPTION: CRF1 assessment of cAMP (HTRF cAMP assay) in Y-79 cells, antagonist mode
# Assay type: cell-based
# RUN CONDITIONS: Y79 cells, 300 nM pepducin against agonist dose response; read-out: % Inhibition (± SD)
# Text: HTRF (homogeneous time resolved fluorescence) is a technology developed by Cisbio Bioassays based on TR-FRET (time-resolved fluorescence resonance energy transfer). Cisbio Bioassays has developed a wide selection of HTRF-based assays compatible with whole cells, thereby enabling functional assays run under more physiological conditions. cAMP kits are based on a competitive immunoassay using cryptate-labeled anti-cAMP antibody and d2-labeled cAMP. […]
Where a SMILES comes first, the peptide text is derived from it. The star is where a group is joined. Palmitoyl = CCCCCCCCCCCCCCCC(=O)*
MEASUREMENT TYPE: inhibition at 0.3 µM (%)
One number for each entry, in %.

Problem: Report value only: inhibition at 0.3 µM, CRF1 (Homo sapiens, UniProt P34998), CCCCCCCCCCCCCCCC(=O)N[C@@H](CCCNC(=N)N)C(=O)N[C@@H](CC(C)C)C(=O)N[C@@H](CCCNC(=N)N)C(=O)N[C@@H](CCCCN)C(=O)N[C@@H](Cc1c[nH]c2ccccc12)C(=O)N[C@@H](CCSC)C(=O)N[C@@H](Cc1ccccc1)C(=O)N[C@H](C(N)=O)[C@@H](C)CC [Compound 30] (Palmitoyl-RLRKWMFI-NH2)
Solution: 39

---

# MEASURED TARGET: CRF1 (Homo sapiens)
# Construct: endogenously expresses functional CRF1; endogenous in cells; host or cells: Y-79 human retinoblastoma cells
# EXPERIMENT DESCRIPTION: CRF1 assessment of cAMP (HTRF cAMP assay) in Y-79 cells, antagonist mode
# Assay type: cell-based
# RUN CONDITIONS: Y79 cells, 300 nM pepducin against agonist dose response; read-out: % Inhibition (± SD)
Where a SMILES comes first, the peptide text is derived from it. The star is where a group is joined. Palmitoyl = CCCCCCCCCCCCCCCC(=O)*
Respond with y for inhibition at 0.3 µM values of 50% and above, n for values below.

Observe how each entry below is paired with its result.
compound="CCCCCCCCCCCCCCCC(=O)NCC(=O)N[C@@H](CO)C(=O)N[C@H](C(=O)N[C@@H](CC(=O)O)C(=O)N[C@@H](CCCNC(=N)N)C(=O)N[C@@H](CC(C)C)C(=O)N[C@@H](CCCNC(=N)N)C(=O)N[C@@H](CCCCN)C(=O)N[C@@H](Cc1c[nH]c2ccccc12)C(=O)N[C@@H](CCSC)C(=O)N[C@@H](Cc1ccccc1)C(=O)N[C@H](C(N)=O)[C@@H](C)CC)[C@@H](C)O [Compound 29, Pal-GSTDRLRKWMFI-amide] (Palmitoyl-GSTDRLRKWMFI-NH2)" cat=y
compound="CCCCCCCCCCCCCCCC(=O)N[C@H](C(=O)N[C@@H](C)C(=O)N[C@@H](CCCNC(=N)N)C(=O)N[C@@H](CC(C)C)C(=O)N[C@@H](CCCNC(=N)N)C(=O)N[C@@H](CCCCN)C(=O)N[C@@H](Cc1c[nH]c2ccccc12)C(=O)N[C@@H](CCSC)C(=O)N[C@@H](Cc1ccccc1)C(=O)N[C@H](C(N)=O)[C@@H](C)CC)[C@@H](C)O [Compound 45] (Palmitoyl-TARLRKWMFI-NH2)" cat=y
compound="CCCCCCCCCCCCCCCC(=O)N[C@@H](CCCNC(=N)N)C(=O)N[C@H](C(=O)N[C@@H](CC(C)C)C(=O)N[C@@H](CCSC)C(=O)N[C@H](C(=O)N[C@@H](CCCCN)C(=O)N[C@@H](CC(C)C)C(=O)N[C@@H](CCCNC(=N)N)C(=O)N[C@@H](C)C(=O)N[C@@H](CO)C(=O)N[C@H](C(=O)N[C@H](C(=O)N[C@@H](CO)C(N)=O)[C@@H](C)O)[C@@H](C)O)[C@@H](C)O)[C@@H](C)CC [Compound 58, Pal-RILMTKLRASTTS-amide] (Palmitoyl-RILMTKLRASTTS-NH2)" cat=n
compound="CCCCCCCCCCCCCCCC(=O)NCC(=O)N[C@@H](CO)C(=O)N[C@@H](CCCNC(=N)N)C(=O)N[C@@H](CC(C)C)C(=O)N[C@@H](CCCNC(=N)N)C(=O)N[C@@H](CCCCN)C(=O)N[C@@H](Cc1c[nH]c2ccccc12)C(=O)N[C@@H](CCSC)C(=O)N[C@@H](Cc1ccccc1)C(=O)N[C@H](C(N)=O)[C@@H](C)CC [Compound 28] (Palmitoyl-GSRLRKWMFI-NH2)" cat=y

# next compound below
Problem: Could you please find out whether CCCCCCCCCCCCCCCC(=O)NCC(=O)N[C@@H](CO)C(=O)N[C@H](C(=O)N[C@@H](CC(=O)O)C(=O)N[C@@H](CCCNC(=N)N)C(=O)N[C@@H](CC(C)C)C(=O)N[C@@H](CCCNC(=N)N)C(=O)N[C@@H](CCCCN)C(=O)N[C@@H](C)C(=O)N[C@@H](CCSC)C(=O)N[C@@H](Cc1ccccc1)C(=O)N[C@H](C(N)=O)[C@@H](C)CC)[C@@H](C)O [Compound 40] (Palmitoyl-GSTDRLRKAMFI-NH2) has inhibition at 0.3 µM that meets 50% or exceeds it?
Solution: y

---

Give inhibition at 0.3 µM for every item shown.
# MEASURED TARGET: CRF1 (Homo sapiens)
# Construct: endogenously expresses functional CRF1; endogenous in cells; host or cells: Y-79 human retinoblastoma cells
# EXPERIMENT DESCRIPTION: CRF1 assessment of cAMP (HTRF cAMP assay) in Y-79 cells, antagonist mode
# Format: cell-based
# RUN CONDITIONS: Y79 cells, 300 nM pepducin against agonist dose response; read-out: % Inhibition (± SD)
Where a SMILES comes first, the peptide text is derived from it. The star is where a group is joined. Palmitoyl = CCCCCCCCCCCCCCCC(=O)*
Give bare numbers, in %.

Illustrative cases are given below, each with its answer.
molecule="CCCCCCCCCCCCCCCC(=O)N[C@H](C(=O)N[C@@H](CC(=O)O)C(=O)N[C@@H](C)C(=O)N[C@@H](CC(C)C)C(=O)N[C@@H](CCCNC(=N)N)C(=O)N[C@@H](CCCCN)C(=O)N[C@@H](Cc1c[nH]c2ccccc12)C(=O)N[C@@H](CCSC)C(=O)N[C@@H](Cc1ccccc1)C(=O)N[C@H](C(N)=O)[C@@H](C)CC)[C@@H](C)O [Compound 46] (Palmitoyl-TDALRKWMFI-NH2)" measurement_type="inhibition at 0.3 µM" display_unit=% value_observed=58
molecule="CCCCCCCCCCCCCCCC(=O)N[C@H](C(=O)N[C@@H](CC(=O)O)C(=O)N[C@@H](CCCNC(=N)N)C(=O)N[C@@H](CC(C)C)C(=O)N[C@@H](CCCNC(=N)N)C(=O)N[C@@H](CCCCN)C(=O)N[C@@H](Cc1c[nH]c2ccccc12)C(=O)N[C@@H](C)C(=O)N[C@@H](Cc1ccccc1)C(=O)N[C@H](C(N)=O)[C@@H](C)CC)[C@@H](C)O [Compound 51] (Palmitoyl-TDRLRKWAFI-NH2)" measurement_type="inhibition at 0.3 µM" display_unit=% value_observed=47
molecule="CCCCCCCCCCCCCCCC(=O)N[C@H](C(=O)N[C@@H](CC(=O)O)C(=O)N[C@@H](CCCNC(=N)N)C(=O)N[C@@H](CC(C)C)C(=O)N[C@@H](CCCNC(=N)N)C(=O)N[C@@H](C)C(=O)N[C@@H](Cc1c[nH]c2ccccc12)C(=O)N[C@@H](CCSC)C(=O)N[C@@H](Cc1ccccc1)C(=O)N[C@H](C(N)=O)[C@@H](C)CC)[C@@H](C)O [Compound 49] (Palmitoyl-TDRLRAWMFI-NH2)" measurement_type="inhibition at 0.3 µM" display_unit=% value_observed=42
molecule="CCCCCCCCCCCCCCCC(=O)N[C@H](C(=O)N[C@@H](CC(=O)O)C(=O)N[C@@H](CCCNC(=N)N)C(=O)N[C@@H](C)C(=O)N[C@@H](CCCNC(=N)N)C(=O)N[C@@H](CCCCN)C(=O)N[C@@H](Cc1c[nH]c2ccccc12)C(=O)N[C@@H](CCSC)C(=O)N[C@@H](Cc1ccccc1)C(=O)N[C@H](C(N)=O)[C@@H](C)CC)[C@@H](C)O [Compound 47] (Palmitoyl-TDRARKWMFI-NH2)" measurement_type="inhibition at 0.3 µM" display_unit=% value_observed=62

I need inhibition at 0.3 µM for every entry listed below, if you could help.
1. CCCCCCCCCCCCCCCC(=O)N[C@H](C(=O)N[C@@H](CC(=O)O)C(=O)N[C@@H](CCCNC(=N)N)C(=O)N[C@@H](CC(C)C)C(=O)N[C@@H](CCCNC(=N)N)C(=O)N[C@@H](CCCCN)C(=O)N[C@@H](C)C(=O)N[C@@H](CCSC)C(=O)N[C@@H](Cc1ccccc1)C(=O)N[C@H](C(N)=O)[C@@H](C)CC)[C@@H](C)O [Compound 50] (Palmitoyl-TDRLRKAMFI-NH2)
2. CCCCCCCCCCCCCCCC(=O)NCC(=O)N[C@@H](CO)C(=O)N[C@H](C(=O)N[C@@H](CC(=O)O)C(=O)N[C@@H](CCCNC(=N)N)C(=O)N[C@@H](CC(C)C)C(=O)N[C@@H](CCCNC(=N)N)C(=O)N[C@@H](CCCCN)C(=O)N[C@@H](Cc1c[nH]c2ccccc12)C(=O)N[C@@H](CCSC)C(=O)N[C@@H](Cc1ccccc1)C(=O)N[C@@H](C)C(N)=O)[C@@H](C)O [Compound 37] (Palmitoyl-GSTDRLRKWMFA-NH2)

Solution:
[58, 45]

I need inhibition at 0.3 µM for every entry listed below, if you could help.
1. CCCCCCCCCCCCCCCC(=O)N[C@@H](CC(=O)O)C(=O)N[C@@H](CCCNC(=N)N)C(=O)N[C@@H](CC(C)C)C(=O)N[C@@H](CCCNC(=N)N)C(=O)N[C@@H](CCCCN)C(=O)N[C@@H](Cc1c[nH]c2ccccc12)C(=O)N[C@@H](CCSC)C(=O)N[C@@H](Cc1ccccc1)C(=O)N[C@H](C(N)=O)[C@@H](C)CC [Compound 31] (Palmitoyl-DRLRKWMFI-NH2)
2. CCCCCCCCCCCCCCCC(=O)N[C@H](C(=O)N[C@@H](CC(=O)O)C(=O)N[C@@H](CCCNC(=N)N)C(=O)N[C@@H](CC(C)C)C(=O)N[C@@H](CCCNC(=N)N)C(=O)N[C@@H](CCCCN)C(=O)N[C@@H](Cc1c[nH]c2ccccc12)C(=O)N[C@@H](CCSC)C(=O)N[C@@H](C)C(=O)N[C@H](C(N)=O)[C@@H](C)CC)[C@@H](C)O [Compound 43] (Palmitoyl-TDRLRKWMAI-NH2)
3. CCCCCCCCCCCCCCCC(=O)N[C@H](C(=O)N[C@@H](CC(=O)O)C(=O)N[C@@H](CCCNC(=N)N)C(=O)N[C@@H](CC(C)C)C(=O)N[C@@H](CCCNC(=N)N)C(=O)N[C@@H](CCCCN)C(=O)N[C@@H](Cc1c[nH]c2ccccc12)C(=O)N[C@@H](CCSC)C(=O)N[C@@H](Cc1ccccc1)C(=O)N[C@@H](C)C(N)=O)[C@@H](C)O [Compound 52] (Palmitoyl-TDRLRKWMFA-NH2)
4. CCCCCCCCCCCCCCCC(=O)N[C@@H](Cc1ccc(O)cc1)C(=O)N[C@@H](CO)C(=O)N[C@H](C(=O)N[C@@H](CC(=O)O)C(=O)N[C@@H](CCCNC(=N)N)C(=O)N[C@@H](CC(C)C)C(=O)N[C@@H](CCCNC(=N)N)C(=O)N[C@@H](CCCCN)C(=O)N[C@@H](Cc1c[nH]c2ccccc12)C(=O)N[C@@H](CCSC)C(=O)N[C@@H](Cc1ccccc1)C(=O)N[C@H](C(N)=O)[C@@H](C)CC)[C@@H](C)O [Compound 34] (Palmitoyl-YSTDRLRKWMFI-NH2)

Solution:
30
48
70
21

Value source: patent US20110301087A1
